- Test system: SF-268 CNS
- method_notes: NCI-60 one-dose screen, 48 h
- particulars: 10 µM unless noted
The panel holds about 83,000 compounds, 20% with a hit somewhere; the sample as a whole holds those more often. The source made the active and inactive calls. The calls were made as follows: active = growth percent below 10; inactive = the rest.
Answer with one of the outcomes given here: Y for active, N for inactive

Check the results log: what was the call for CN1C(=O)N(C)C2C1NN=c1s/c(=C\c3ccc(Cl)cc3Cl)c(=O)n12 (centres undefined) ?
N

Check the results log: what was the call for COc1cc(C(C)n2cc(-c3ccccc3)nn2)ccc1OC1CCCCC1 (centres undefined) ?
N

Check the results log: what was the call for CN(C)CCCNCc1ccc(-c2ccc(F)c(Cl)c2)o1 ?
N

Check the results log: what was the call for O=C(NCc1ccccc1)C1CN(c2ccc(Cl)cc2)N(c2ccc(Cl)cc2)C1=O (centres undefined) ?
N

Check the results log: what was the call for Cc1ccc(Nc2nc(N)c3ccccc3n2)cc1Cl ?
N

---

- System: NCI-H460 lung
- method_notes: NCI-60 one-dose screen, 48 h
- particulars: 10 µM unless noted
Compounds without any hit were thinned out: in the full panel of roughly 83,000, 20% have a hit. Active and inactive are the calls of the source. How the source made its calls: active means growth percent below 10; inactive means the rest.
Answer with one of the outcomes given here: t (active), f (inactive)

Study these solved cases before continuing.
Clc1ccc(COc2ccc(Nc3ncnc4onc(-c5ccccc5)c34)cc2)cc1; f
O=C(/C=C/c1ccc(Cl)cc1)c1ccc(Nc2nc(NCCO)nc(Nc3ccc(Cl)cc3)n2)cc1; f
O=c1oc2ccc(Br)cc2c(=O)n1-c1ccc(F)cc1F; t
Nc1n[nH]c2ccc([C@@H]3Nc4ccc5[nH]ncc5c4[C@H]4[C@H]5CCC(C5)[C@H]43)cc12; t

Check the results log: what was the call for COc1cc(C2C(C#N)=C(N)OC3=C2C(=O)c2ccccc2C3=O)cc(OC)c1O (stereo unspecified) ?
f

Check the results log: what was the call for O=C(Nc1ccc(F)cc1F)c1cc(I)ccc1O ?
t

Check the results log: what was the call for COc1ccc(/C=C/C(=O)c2c(C)nc3ccccc3c2/C=C/c2ccccc2)c(OC)c1 ?
f

Check the results log: what was the call for CCN1CCN(C(=S)SCC(=O)Nc2nc3ccc(C)cc3s2)CC1 ?
f

Check the results log: what was the call for Cc1ccc2cc3c(N)c4c(C)ccc(C)c4nc3nc2c1 ?
f

Check the results log: what was the call for COc1ccc(/C=C2\NC(=O)NC2=O)cc1O ?
f

Check the results log: what was the call for FC(F)(F)c1cccc(Nc2nc(-c3ccccc3)nc3ncccc23)c1 ?
f

Check the results log: what was the call for COc1cc(C(=O)O/N=C(\N)Cc2cccc3ccccc23)cc(OC)c1OC ?
t

Check the results log: what was the call for O=C(Nc1ccccc1O)c1ccc(-c2ccc(Cl)cc2Cl)o1 ?
f

Check the results log: what was the call for CCOc1ccc(Nc2ccnc3cc(Cl)ccc23)cc1 ?
t

Check the results log: what was the call for Oc1[nH]c2ccccc2c1N=Nc1nnc2n1N=C(c1ccccc1)CS2 ?
f

Check the results log: what was the call for COc1ccc(/C=C2/SC(=O)N(CC(=O)N3CCN(c4cc5c(cc4F)c(=O)c(C(=O)O)cn5C4CC4)CC3)C2=O)cc1 ?
f

---

- Tested on: T-47D breast
- method_notes: NCI-60 one-dose screen, 48 h
- particulars: 10 µM unless noted
Compounds without any hit were thinned out: in the full panel of roughly 83,000, 20% have a hit. Active and inactive are the calls of the source. The calls were made as follows: active = growth percent below 10; inactive = the rest.
Answer with one of the outcomes given here: active, inactive

CCCCOCc1cc(CN2CCN(C)CC2)c(O)c2ncccc12; inactive
Cc1ccc(S(=O)(=O)c2c(COC(=O)c3cccc(C)c3)c(-c3ccccc3)nn2C)cc1; active

Check the results log: what was the call for CCCCC1CCc2cccc3c(SCC(=O)N(C)c4ccc(Cl)cc4)cc[n+]1c23 (stereo not drawn) ?
inactive

Check the results log: what was the call for COc1ccc2occ(C3=C(c4c[nH]c5ccccc45)C(=O)NC3=O)c2c1 ?
inactive

Check the results log: what was the call for Nc1nc(-c2cnccn2)nn1-c1nc2ccccc2s1 ?
inactive

Check the results log: what was the call for Cc1ccc(OCCCCCCNCCO)c(C)c1 ?
active

Check the results log: what was the call for COc1ccccc1CNC(=O)C1c2ccccc2C(=O)N(CC(C)C)C1c1cccs1 (stereo not drawn) ?
inactive

Check the results log: what was the call for O=C1/C(=C\c2ccc[nH]2)c2ccccc2N1c1ccccc1 ?
inactive

---

- Tested on: M14 melanoma
- method_notes: NCI-60 one-dose screen, 48 h (100 = growth as untreated, 0 = no growth, -100 = all killed)
- particulars: 10 µM unless noted
The panel holds about 83,000 compounds, 20% with a hit somewhere; the sample as a whole holds those more often. Active and inactive are the calls of the source. How the source made its calls: active means growth percent below 10; inactive means the rest.
parameter_measured: growth

COc1ccc(OC)c(NC(=O)/C(C#N)=C/c2ccco2)c1; 99.2% (inactive)
Clc1ccc(COc2ccc(Nc3ncnc4onc(-c5ccccc5)c34)cc2)cc1; 76% (inactive)

Turning now to a further compound:
Please give measured growth of the following entry: CC1(C)CC2(C)OC2C2(C1)N=NC(=Nc1ccccc1)O2 (stereo not drawn)
65.4% (inactive)

---

- System: SK-OV-3 ovarian
- method_notes: NCI-60 one-dose screen, 48 h
- particulars: 10 µM unless noted
This is part of a sample that, as a whole, favours compounds with a hit. Of some 83,000 tested, about 20% had one in any assay. Active and inactive are the calls of the source. How the source made its calls: active means growth percent below 10; inactive means the rest.
Answer with one of the outcomes given here: yes for active, no for inactive

Study these solved cases before continuing.
Cn1c(C(=O)c2cccc3ccccc23)nc2ccccc21; no
COC(=O)C1(C)COP(=O)(Nc2ccc(OC)cc2)OC1 (configuration not stated); no
CCOc1ccccc1CN1CCc2nc3cc(C(C)(C)C)[nH]n3c(=O)c2C1; no

Check the results log: what was the call for COc1c(B(O)O)cccc1-c1nc2ccc3[nH]ncc3c2c2c1C1CCC2C1 (configuration not stated) ?
no

Check the results log: what was the call for O=C(CCc1nnc2sc(-c3ccc(Cl)cc3Cl)nn12)c1nc2ncccc2[nH]1 ?
no

Check the results log: what was the call for CSc1nc2c(c(=O)[nH]1)N=C1c3ccccc3C(=O)C1C(c1ccccc1)N2 (configuration not stated) ?
no

Check the results log: what was the call for FC(F)(F)c1cccc(Nc2nc3ccccc3nc2Nc2cccc(C(F)(F)F)c2)c1 ?
no

Check the results log: what was the call for Nc1n[nH]c2ccc([C@@H]3Nc4ccc5[nH]ncc5c4[C@H]4[C@H]5CCC(C5)[C@H]43)cc12 ?
no

Check the results log: what was the call for CCCCc1c(CCC)c(=N)c2ccccc2n1C ?
no

Check the results log: what was the call for COc1ccc(C2C3=C(COC3=O)N(CCO)c3cc4c(cc32)OCCO4)cc1 (configuration not stated) ?
no

Check the results log: what was the call for COc1ccccc1C(=O)/C=C/c1ccccc1 ?
no

Check the results log: what was the call for O=c1oc2ccc(F)cc2c(=O)n1-c1ccc(Cl)cc1F ?
yes

---

# growth per record follows
- Tested on: IGROV1 ovarian
- method_notes: NCI-60 one-dose screen, 48 h (100 = growth as untreated, 0 = no growth, -100 = all killed)
- particulars: 10 µM unless noted
About 83,000 compounds went through this panel and 20% of them were active in at least one assay; those are over-represented in the sample as a whole.
Please reply with the bare figure in % and do not write the unit itself.

Use these answered entries as a reference point.
COc1ccccc1C1=C(Br)C(=O)c2nc(C)ccc2C1=O; 97.3
CCOC(=O)c1sc(-c2ccc(OS(=O)(=O)C[C@]34CCC(CC3=O)C4(C)C)c(C=O)c2)nc1C; -21.8

Please give measured growth of the following entry: Nc1ccc(-c2nc3cc(Oc4ccc(Oc5ccc6[nH]c(-c7ccc(N)cc7)nc6c5)cc4)ccc3[nH]2)cc1
120

Please give measured growth of the following entry: COc1ccc(Cn2cc(Cn3cc(C=C4C(=O)NC(=O)NC4=O)c4ccccc43)nn2)cc1
94.3

---

# growth per record follows
- Tested on: UACC-257 melanoma
- method_notes: NCI-60 one-dose screen, 48 h (100 = growth as untreated, 0 = no growth, -100 = all killed)
- particulars: 10 µM unless noted
- Method: Cells are grown in 96 well plates and exposed to the test compound for 48 hours. Compounds are tested at a single concentration, which is 10^-5 M for most compounds. The reported endpoint is percent growth (GI% or GIPRCNT), where numbers from 0 - 100% represent growth inhibition, and numbers from -100% - 0 represent cell death. For example, a value of 40 represents 60% growth inhibition. A value of 0 means no net growth occurred over the course of the experiment. […]
This is part of a sample that, as a whole, favours compounds with a hit. Of some 83,000 tested, about 20% had one in any assay.
Please reply with the bare figure in % and do not write the unit itself.

Cc1sc2ncn(CC(=O)Nc3ccc(S(N)(=O)=O)cc3)c(=O)c2c1C; 97.7
COc1ccc(/C(C#N)=C/c2nc3c(N4CCOCC4)nc(Cl)nc3n2C)cc1OC; 16.2
O=C(CCc1nnc2sc(COc3ccccc3)nn12)c1nc2ncccc2[nH]1; 98.9
COc1ccc2occ(C3=C(c4c[nH]c5ccccc45)C(=O)NC3=O)c2c1; 76.3
COC(=O)c1c2c(c(C)[n+]([O-])c1C)C(=O)C(NCc1ccc(Br)cc1)=CC2=O; -52.3

Please give measured growth of the following entry: COc1ccc(N)c(-c2cc3c(c4c2[nH]c2ccc(OC)cc24)CCCC3)c1
67.9

Please give measured growth of the following entry: COC(=O)/C(CCC=C(C)C)=C1\[C@@H](OC(C)=O)C[C@@]2(C)[C@H]1CC(=O)[C@H]1[C@@]3(C)CC[C@H](NCc4ccccc4)[C@@H](C)[C@@H]3CC[C@@]12C
99.7

Please give measured growth of the following entry: Cn1nc(C(F)(F)F)c(-c2ccc(Cl)c(C(F)(F)F)c2)c1-c1ccc(OCc2ccc(Cl)cc2)cc1O
2.35

Please give measured growth of the following entry: Nc1cccc(Nc2cc(S(=O)(=O)O)c(N)c3c2C(=O)c2ccccc2C3=O)c1
97

Please give measured growth of the following entry: Clc1ccc(-c2nnc(COc3ccc(C4=NNC(c5ccco5)C4)cc3)o2)cc1 (stereo not drawn)
96.1

Please give measured growth of the following entry: COc1cc2cc3c(=O)n4c(cc5cc(OC)ncc54)c(=O)n3c2cn1
110

Please give measured growth of the following entry: NC1(N2SC(S)=C3CCCC=C32)CCCCC1
99.8

Please give measured growth of the following entry: COc1cccc(/C(C#N)=C/c2nc3c(N4CCOCC4)nc(Cl)nc3n2C)c1
-57.6

The reported numbers originate from PubChem BioAssay (NCI).
